biological target: Peroxisome proliferator-activated receptor delta (Homo sapiens) (UniProt Q03181); experiment: qHTS assay for small molecule agonists of peroxisome proliferator-activated receptor delta signaling (AID 588534); details: HEK293T PPARdelta-UAS-bla, beta-lactamase ratio, 18 h; series mostly up to 76.7 µM;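 also: 0% = DMSO basal wells and 100% = positive control agonist at 10 µM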
Sequence (Q03181 whole entry, looked up): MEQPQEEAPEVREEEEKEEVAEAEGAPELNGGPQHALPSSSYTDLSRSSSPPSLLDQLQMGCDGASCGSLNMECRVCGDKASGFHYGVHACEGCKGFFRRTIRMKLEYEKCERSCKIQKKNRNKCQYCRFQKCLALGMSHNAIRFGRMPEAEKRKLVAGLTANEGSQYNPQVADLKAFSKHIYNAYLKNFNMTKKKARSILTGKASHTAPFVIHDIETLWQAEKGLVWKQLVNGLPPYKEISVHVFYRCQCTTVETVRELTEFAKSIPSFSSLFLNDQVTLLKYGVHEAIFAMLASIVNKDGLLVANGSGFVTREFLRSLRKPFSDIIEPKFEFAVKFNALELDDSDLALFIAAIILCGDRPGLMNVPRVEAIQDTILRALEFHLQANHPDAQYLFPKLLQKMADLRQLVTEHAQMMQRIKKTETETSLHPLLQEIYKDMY
Inconclusive results are not listed. Calls of active or inactive are those of the source. Calls follow the shape of the full dose curve.
attribute measured: outcome

[
  {
    "compound": "CC(C)C(=O)OCC(C)(C)C(O)C(C)C (stereo not given)",
    "reported result": "inactive"
  },
  {
    "compound": "CS/C(=N\\O)C(=O)N(C)C",
    "reported result": "inactive"
  },
  {
    "compound": "NC=O",
    "reported result": "inactive"
  },
  {
    "compound": "OC(c1ccc(Cl)cc1)(c1cncnc1)c1ccccc1Cl (stereo not given)",
    "reported result": "inactive"
  },
  {
    "compound": "ClC/C=C/CCl",
    "reported result": "inactive"
  },
  {
    "compound": "COC(=O)C(C)Oc1ccc(Oc2ncc(C(F)(F)F)cc2Cl)cc1 (stereo not given)",
    "reported result": "inactive"
  }
]

The compound "Oc1c(Cl)cc(Cl)c(Cl)c1Cl" showed outcome equal to inactive

The compound "COc1c(Cl)ccc(Cl)c1C(=O)O" showed outcome equal to inactive

The compound "COP(=S)(OC)Oc1ccc([N+](=O)[O-])c(C)c1" showed outcome equal to inactive

The compound "Cc1ccc(C)o1" showed outcome equal to inactive

The compound "CCCCN(CC)c1c([N+](=O)[O-])cc(C(F)(F)F)cc1[N+](=O)[O-]" showed outcome equal to inactive

The compound "CCOc1cccc(N)c1" showed outcome equal to inactive

The compound Cc1cc(Cl)ccc1OC(C)C(=O)O (stereo not given) showed outcome equal to inactive

* * *

assay: qHTS assay for small molecule activators of the p53 signaling pathway (AID 651743); conditions: HCT-116 p53RE-bla, beta-lactamase FRET ratio, 16 h; active compounds read high; also: % of control where 0% means no effect
Results filed as inconclusive are left out.
Below, each entry is listed alongside its reported activation.
Give the value, in units of %, as a plain number.

[
  {
    "molecule": "COC(=O)/C=C(\\C)OP(=O)(OC)OC",
    "unit info": "%",
    "activation": -3.2
  },
  {
    "molecule": "CC[C@H]1CCCC(O[C@H]2CC[C@H](N(C)C)[C@@H](C)O2)[C@@H](C)C(=O)C2=C[C@@H]3[C@@H](C=C[C@@H]4C[C@@H](O[C@@H]5O[C@@H](C)[C@H](OC)[C@@H](OC)[C@H]5OC)C[C@@H]34)[C@@H]2CC(=O)O1 (stereo partly drawn)",
    "unit info": "%",
    "activation": -4.77
  },
  {
    "molecule": "Cc1c(COC(=O)C2C(/C=C(\\Cl)C(F)(F)F)C2(C)C)cccc1-c1ccccc1 (stereo not drawn)",
    "unit info": "%",
    "activation": 2.17
  },
  {
    "molecule": "CCOP(=S)(OCC)SCC(=O)NC(C)C",
    "unit info": "%",
    "activation": -0.0599
  },
  {
    "molecule": "CNC(=S)S",
    "unit info": "%",
    "activation": -4.42
  },
  {
    "molecule": "COC(C)(C)CCC[C@H](C)C/C=C/C(C)=C/C(=O)OC(C)C",
    "unit info": "%",
    "activation": -4.16
  },
  {
    "molecule": "CCSCc1ccccc1OC(=O)NC",
    "unit info": "%",
    "activation": 3.49
  },
  {
    "molecule": "CC1CCCCC1NC(=O)Nc1ccccc1 (stereo not drawn)",
    "unit info": "%",
    "activation": 0.836
  },
  {
    "molecule": "COC(=O)c1ccccc1S(=O)(=O)NC(=O)Nc1nc(C)nc(OC)n1",
    "unit info": "%",
    "activation": 6.08
  },
  {
    "molecule": "CCOc1cc(Oc2ccc(C(F)(F)F)cc2Cl)ccc1[N+](=O)[O-]",
    "unit info": "%",
    "activation": 3.72
  }
]

The molecule "[Cu+2].[O-]c1cccc2cccnc12.[O-]c1cccc2cccnc12" showed activation equal to -8.29

The molecule CC(Oc1cccc(Cl)c1)C(=O)O (stereo not drawn) showed activation equal to 0.409

The molecule "Brc1ccc(Oc2ccccc2)cc1" showed activation equal to 1.17

The molecule "COc1nc(C)nc(NC(=O)NS(=O)(=O)c2ccccc2Cl)n1" showed activation equal to -1.02

The molecule "CC(=NC#N)N(C)Cc1ccc(Cl)nc1" showed activation equal to -5.43

The molecule "Clc1ccc(C(c2ccc(Cl)cc2)C(Cl)Cl)cc1" showed activation equal to 6.6

The molecule "N#CN=C1SCCN1Cc1ccc(Cl)nc1" showed activation equal to 1.82

The molecule "CC(C)(c1ccccc1)c1cc(-n2nc3ccccc3n2)c(O)c(C(C)(C)c2ccccc2)c1" showed activation equal to -0.652
